The origin of these recorded values is PubChem BioAssay (NCI).

System: HL-60(TB) leukemia
measurement.notes: NCI tumour cell line growth inhibition, 48 h
Overview of reported TGI across a group of molecules:
Quick reminder: number only, in µM, skip the unit.

Here are 10 molecules together with their reported answers.
c1ccc(OC2=NC3=S(S2)SC(Oc2ccccc2)=N3)cc1 = 42.5
COc1ccc2c(c1OC)C(=O)N1C2=Cc2c(cc3c(c2OC)OCO3)CC1N(C)C (stereo unspecified) = 80.1
COc1cc2cnc3c4cc(OCc5ccccc5)ccc4ccc3c2cc1OC = 9.27
CCN(Cc1c(F)cccc1Cl)c1ccc(CO)c(Cl)c1 = 37.3
CC1(C)C=C(/C=C2/N(S(=O)(=O)C(F)(F)F)C(/C=C3/N(S(=O)(=O)C(F)(F)F)C(C)(C#N)CC3(C)C)=CC2(C)C)N=C1/C=C1/CC(C)(C)C(=O)N1 (stereo unspecified) = 21.2
O/N=C/c1ccc(O)c(O)c1 = 58.8
O=C(C(=C(I)I)c1ccccc1)c1ccccc1 = 52.3
CC[C@H](NC(=O)OC(C)(C)C)C(=O)NCP(=O)(OCc1ccc([N+](=O)[O-])cc1)OCc1ccc([N+](=O)[O-])cc1 = 62.2
O=C1c2cc3c(cc2-c2c1c1ccc(Cl)cc1c(=O)n2CCCn1ccnc1)OCO3 = 1.93
CC/C=N\N1C(N)=C(C#N)C(C#N)(C#N)C1CC (stereo unspecified) = 85.6

What the record says about c1cncc(CSc2nc3ccccc3nc2-c2cccs2)c1 : TGI is 47.9

What the record says about C=C(C)[C@@H]1CC[C@]2(C(=O)NS(=O)(=O)c3ccccc3)CC[C@]3(C)[C@H](CC[C@@H]4[C@@]5(C)CC[C@H](OC(=O)NS(=O)(=O)c6ccccc6)C(C)(C)[C@@H]5CC[C@]43C)[C@@H]12 : TGI is 5.08

What the record says about COc1ccc2nc3cc(Cl)ccc3c(Nc3cc(CN4CCCC4)c(O)c(CN4CCCC4)c3)c2n1 : TGI is 4.78

What the record says about CC(=O)[CH-]C(=O)c1ccccc1.CC(=O)[CH-]C(=O)c1ccccc1.[O-]c1ccc2c(c1)OCO2.[O-]c1ccc2c(c1)OCO2.[Ti+4] : TGI is 48

What the record says about CN(C)CCCNc1nc2ccccc2c2[nH]c3ccccc3c12 : TGI is 2.49

What the record says about CCN(CC)C(=S)N/N=C(/c1ccccc1)c1ccccn1 : TGI is 1.59

What the record says about COc1cc(NCCCCCN=C(N)NC(N)=NC(C)C)c2ncccc2c1 : TGI is 3.46

###

System: LOX IMVI melanoma
measurement.notes: NCI tumour cell line growth inhibition, 48 h; in the data active means GI50 below about 0.43 µM; inactive means the rest
Would you mind answering with one of these outcomes? T (active), F (inactive)

O=C(Nc1cccc(C(F)(F)F)c1)Oc1ccc(Cl)c2cccnc12 = F
O=C1NC(c2ccccc2)C2(C(=O)O)CN(C3CC3)c3cc(N4CCNCC4)c(F)cc3C2N1 (stereo unspecified) = F
C1=CCCC=CCC1.C[PH+](C)C.C[PH+](C)C.C[PH+](C)C.[Cl-].[Ir] = F
COc1c(N2CCN(CN3C(=O)C(=Nc4ccc(S(=O)(=O)Nc5ncccn5)cc4)c4cc(Cl)ccc43)C(C)C2)c(F)cc2c(=O)c(C(=O)O)cn(C3CC3)c12 (stereo unspecified) = F
CNC(=O)c1cncc(/C=C/c2ccccc2Cl)c1 = F

I would be grateful if you could indicate the recorded call for CC[C@H](C)[C@H](NC(=O)c1cccn1C)C(=O)N(C)[C@H](C[C@@H](OC(C)=O)c1nc(C(=O)N[C@@H](Cc2ccccc2)C[C@H](C)C(=O)OC)cs1)C(C)C .
T

I would be grateful if you could indicate the recorded call for O=C1c2cc3c(cc2-c2c1c1ccc(Cl)cc1c(=O)n2CCCn1ccnc1)OCO3 .
T

I would be grateful if you could indicate the recorded call for N#Cc1cccc(C2C3=C(COC3=O)N(CCO)c3cc4c(cc32)OCO4)c1 (stereo unspecified) .
F

I would be grateful if you could indicate the recorded call for Cc1cccc2c1[nH]c(=O)c1c3ccccc3cn21 .
F

I would be grateful if you could indicate the recorded call for CCn1c2ccccc2c2cc(C(=O)c3ccc(C)c4ccccc34)ccc21 .
T

I would be grateful if you could indicate the recorded call for COc1cc(NCCCCCN=C(N)NC(N)=NC(C)C)c2ncccc2c1 .
F

I would be grateful if you could indicate the recorded call for CC(C)c1ccc(NC(=O)Cc2ccc(Nc3ncnc4cc(-c5cnn(CCN(C)C)c5)ccc34)cc2)cc1 .
F

I would be grateful if you could indicate the recorded call for C[CH2][Sn]([CH2]C)([O]C(=O)c1ccc(F)cc1)[O]C(=O)c1ccc(F)cc1 .
F

I would be grateful if you could indicate the recorded call for CC(C)(C)OC(=O)N[C@@H](Cc1ccccc1)C(=O)N(Cc1ccccc1)C1(C(=O)NCc2ccccc2)CCN(Cc2ccccc2)CC1 .
F

I would be grateful if you could indicate the recorded call for C=C1CCC2C3(C)COC(c4ccccc4Cl)OC3CCC2(C)C1/C=C/C1=CCOC1=O (stereo unspecified) .
F

I would be grateful if you could indicate the recorded call for CC(=O)[O-].N.N.N.N.[Co+3].[O-][Cl+3]([O-])([O-])[O-].[OH3+] .
F

###

Tested on: HS 578T breast
measurement.notes: NCI tumour cell line growth inhibition, 48 h
observable: TGI

Here are 8 compounds together with their reported answers.
CCOC(=O)c1c(-c2ccccc2)c(OC)cn1C = > 10 µM
O=C(/C=C/C12c3ccccc3C(c3ccccc31)C1C(=O)NC(=O)C12)c1ccccc1 (configuration not stated) = 7.68 µM
CN(C)CCNCCCNc1c2ccccc2nc2cccc([N+](=O)[O-])c12 = 0.384 µM
Nc1cccc2c1C(=O)c1cccc(NC(=O)c3ccccc3)c1C2=O = > 53.1 µM
CC1=NOC(=O)/C1=C/c1ccc2c(c1)OCO2 = > 100 µM
COc1cc(/C=C2\CCCC3=C2N=C2SC(C)=NN2C3c2cc(OC)c(OC)c(OC)c2)cc(OC)c1OC (configuration not stated) = > 100 µM
CC(C)(C)OC(=O)Nc1ccc2c(c1)C(NC(=O)Nc1cccc(C#N)c1)CC(C)(C)O2 (configuration not stated) = > 100 µM
CN1CCN(CCCOc2cc(O)c3c(=O)cc(-c4ccccc4)oc3c2)CC1 = 52.9 µM

What the record says about O=P(O)(O)OCC1OC(n2cnc3c(NCc4ccccc4)ncnc32)C(O)C1O (configuration not stated) : TGI is 6.1 µM

###

Test system: OVCAR-5 ovarian
measurement.notes: NCI tumour cell line growth inhibition, 48 h
observable: TGI

Here are 3 molecules together with their reported answers.
CSc1ncc2c(n1)-c1ccccc1OC2NC1CC1 (centres undefined) = > 100 µM
C1=CCCC=CCC1.C[PH+](C)C.C[PH+](C)C.C[PH+](C)C.[Cl-].[Ir] = > 100 µM
C=C1[C@@H]2CCC3[C@]4(C)C(CC[C@@]5(C)C(=O)O[C@H](O)[C@@H]45)[C@H](O)[C@]3(C2)[C@H]1OC1OC(CO)C(O)C(O)C1O (some centres undefined) = > 50 µM

Form field, TGI with OVCAR-5 ovarian, item C[N+](C)=c1ccc2nc3c(cc(NCCCNc4cc5oc6cc(=[N+](C)C)ccc-6nc5c5ccccc45)c4ccccc43)oc-2c1 : 10.9 µM

Form field, TGI with OVCAR-5 ovarian, item CC1=C(C)SC(=C2Sc3c(n(C)c(=O)n(C)c3=O)S2)S1 : > 100 µM

Form field, TGI with OVCAR-5 ovarian, item NC(=O)C1CCN(Cc2c(Cl)c(Cl)c(CN3CCC(C(N)=O)CC3)c(Cl)c2Cl)CC1 : > 100 µM

Form field, TGI with OVCAR-5 ovarian, item CC1SC(c2ccc(Cl)cc2Cl)N(NC(=O)C(O)c2ccccc2)C1=O (centres undefined) : > 100 µM

Form field, TGI with OVCAR-5 ovarian, item O=c1/c(=N\Nc2ccccc2)c2cccc3ccc4cccc1c4c32 : > 100 µM

Form field, TGI with OVCAR-5 ovarian, item COc1ccc(OC(C)C(=O)O)c2c(=O)ccccc12 (centres undefined) : > 100 µM

###

Tested on: HOP-92 NSCLC
measurement.notes: NCI tumour cell line growth inhibition, 48 h
Overview of reported TGI across a group of molecules:
Quick reminder: number only, in µM, skip the unit.

O=C1N=C(Nc2nc(-c3csc(NC4=NC(=O)/C(=C\c5ccccc5)S4)n3)cs2)S/C1=C/c1ccccc1 = 20.5
CC(C)(C)c1ccnc(N=C2N=C(Nc3cc(C(C)(C)C)ccn3)c3ccccc32)c1 = 47.1

What the record says about COc1cc(NCCCCCN=C(N)NC(N)=NC(C)C)c2ncccc2c1 : TGI is 9.82

###

Test system: UACC-62 melanoma
measurement.notes: NCI tumour cell line growth inhibition, 48 h
Overview of reported GI50 across a group of molecules:

Here are 5 molecules together with their reported answers.
C1=CCCC=CCC1.C[PH+](C)C.C[PH+](C)C.C[PH+](C)C.[Cl-].[Ir] = 32600 nM
CC(C)c1ccc(NC(=O)Cc2ccc(Nc3ncnc4cc(-c5cnn(CCN(C)C)c5)ccc34)cc2)cc1 = > 10000 nM
COC(=O)N[C@H]1CCc2c(Cl)c(OC)c(OC)c(OC)c2-c2ccc(SC)c(=O)cc21 = < 10 nM
N#CC1=C(N)NC(=O)NC12Nc1ccccc1N2 = > 100000 nM
CC(=O)[CH-]C(=O)c1ccccc1.CC(=O)[CH-]C(=O)c1ccccc1.[O-]c1ccc2c(c1)OCO2.[O-]c1ccc2c(c1)OCO2.[Ti+4] = 47500 nM

What the record says about O=C(Nc1cccc(C(F)(F)F)c1)Oc1ccc(Cl)c2cccnc12 : GI50 is 1150 nM

What the record says about C[CH2][Sn]([CH2]C)([O]C(=O)c1ccc(F)cc1)[O]C(=O)c1ccc(F)cc1 : GI50 is 17700 nM

What the record says about CN(C)CCCNc1nc2ccccc2c2[nH]c3ccccc3c12 : GI50 is 4010 nM

What the record says about CNC(=O)c1cncc(/C=C/c2ccccc2Cl)c1 : GI50 is > 25000 nM

What the record says about COc1cc(CNc2oc(-c3ccccc3)c(-c3ccccc3)c2C#N)cc(CN2CCN(C)CC2)c1O : GI50 is 1770 nM
